Reported values of glycan array binding signal (z-score) for individual entries
- TARGET_ENTITY: Neu5Ac(a2-6)Gal(b1-4)GlcNAc(b1-2)Man(a1-3)[Gal(b1-4)GlcNAc(b1-2)Man(a1-6)]Man(b1-4)GlcNAc(b1-4)GlcNAc
- TEST_DESCRIPTION: glycan array binding signal (z-score within array); higher = stronger binding
- PARTICULARS: glycan notation: IUPAC condensed, linker removed
Shown is part of a subset that was picked to be rich in the strongest signals.
MEASURED_QUANTITY: glycan array binding signal (z-score)

INSERT INTO results (binder, quantitative_result) VALUES
  ('Clone646PsrP (Streptococcus pneumoniae) (protein) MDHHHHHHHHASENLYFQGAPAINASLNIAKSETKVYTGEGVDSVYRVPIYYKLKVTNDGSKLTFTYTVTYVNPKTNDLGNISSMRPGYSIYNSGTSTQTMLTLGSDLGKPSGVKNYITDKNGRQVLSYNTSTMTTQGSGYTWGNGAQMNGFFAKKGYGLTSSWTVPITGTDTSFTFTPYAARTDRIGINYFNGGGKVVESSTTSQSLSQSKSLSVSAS', -0.713),
  ('Epa1to9 (Candida glabrata) (protein) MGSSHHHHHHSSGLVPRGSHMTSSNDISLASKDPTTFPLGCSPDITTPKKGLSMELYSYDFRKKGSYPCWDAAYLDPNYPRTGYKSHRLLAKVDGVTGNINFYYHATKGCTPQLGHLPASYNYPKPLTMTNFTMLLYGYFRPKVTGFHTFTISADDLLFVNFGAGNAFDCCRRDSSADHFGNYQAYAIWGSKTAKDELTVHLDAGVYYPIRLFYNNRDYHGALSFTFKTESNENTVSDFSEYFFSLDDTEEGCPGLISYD', -0.246),
  ('SBD (Rhizopus oryzae), P07683 (protein) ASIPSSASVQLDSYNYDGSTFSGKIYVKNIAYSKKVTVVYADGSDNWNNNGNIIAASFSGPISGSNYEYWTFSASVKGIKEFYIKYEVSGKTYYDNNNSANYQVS', -0.457);
